A collection of binders and their measured interaction score
Molecular target: T1, P6SC1
T1 chain: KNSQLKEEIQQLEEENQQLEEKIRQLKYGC
Experiment: two-hybrid library CC1;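 further: natural log of median RNA to DNA barcode read ratio; higher means stronger binding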
Details: mean of both orientations
// print number alone

binder	interaction score
SPEDENAALEEKIAQLKQKNAALKEEIQALEYG [P5]	0.186

Short answer for SPEDKIAQLKQKIQALKQENQQLEEENAALEYG [P4] : interaction score was -2.87

Measured interaction score of ENARLEEKIRQLKQKNSQLKEEIQQLEYGC [P5SC2] : 0.316

ENQALEQEIAQLEQEIAALEQKNAQLKYG [P11] has a reported interaction score of -2.75

interaction score measured on ENSQLEEKISQLKQKNSRLKEEIARLEYGC [P5SC1] = 0.372
